systemTested: hHDAC4 (Homo sapiens (Human), UniProt P56524)
Sequence (P56524 whole entry): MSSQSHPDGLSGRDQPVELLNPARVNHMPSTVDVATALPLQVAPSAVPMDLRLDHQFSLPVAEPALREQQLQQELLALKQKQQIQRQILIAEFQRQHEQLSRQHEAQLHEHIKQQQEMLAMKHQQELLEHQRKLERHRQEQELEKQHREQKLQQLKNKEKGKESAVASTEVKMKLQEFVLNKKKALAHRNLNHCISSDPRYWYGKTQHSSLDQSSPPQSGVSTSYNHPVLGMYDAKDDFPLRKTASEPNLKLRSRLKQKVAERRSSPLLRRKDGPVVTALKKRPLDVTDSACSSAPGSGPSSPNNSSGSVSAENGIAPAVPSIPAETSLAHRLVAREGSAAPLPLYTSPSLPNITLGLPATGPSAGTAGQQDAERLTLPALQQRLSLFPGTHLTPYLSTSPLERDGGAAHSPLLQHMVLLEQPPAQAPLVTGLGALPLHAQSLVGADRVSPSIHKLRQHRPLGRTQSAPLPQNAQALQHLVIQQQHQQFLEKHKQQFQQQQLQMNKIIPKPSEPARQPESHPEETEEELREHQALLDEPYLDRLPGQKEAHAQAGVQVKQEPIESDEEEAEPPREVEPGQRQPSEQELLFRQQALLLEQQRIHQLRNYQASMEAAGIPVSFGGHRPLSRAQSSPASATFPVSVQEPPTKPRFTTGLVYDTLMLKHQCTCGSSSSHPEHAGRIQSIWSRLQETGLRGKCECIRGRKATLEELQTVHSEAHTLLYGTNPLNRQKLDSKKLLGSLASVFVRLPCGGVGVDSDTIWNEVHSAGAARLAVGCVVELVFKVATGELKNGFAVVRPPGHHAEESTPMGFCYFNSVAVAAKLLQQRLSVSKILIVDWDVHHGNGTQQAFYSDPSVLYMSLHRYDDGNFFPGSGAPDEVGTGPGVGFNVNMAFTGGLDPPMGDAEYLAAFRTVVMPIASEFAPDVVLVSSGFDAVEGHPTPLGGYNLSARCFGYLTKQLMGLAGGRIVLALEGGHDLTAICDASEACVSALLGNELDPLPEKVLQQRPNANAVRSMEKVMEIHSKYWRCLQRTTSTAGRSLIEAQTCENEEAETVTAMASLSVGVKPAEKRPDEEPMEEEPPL
methodSummary: hHDAC4 inhibition protocol
conditionSet: read-out: IC50 (nM) of enzyme activity HDAC4; selectivity table
parameter: IC50

stdin: Item under review: FC(F)c1nnc(-c2ccc(Cn3cnc4cc(Cl)c(Cl)cc43)nc2)o1 . Reported IC50?
stdout: 2400 nM

stdin: Item under review: FC(F)c1nnc(-c2ccc(Cn3nc4cc(Cl)c(Cl)cc4n3)nc2)o1 . Reported IC50?
stdout: > 10000 nM

stdin: Item under review: FC(F)c1nnc(-c2ccc(Cn3nnc4ccccc43)cc2)o1 . Reported IC50?
stdout: > 10000 nM

stdin: Item under review: FC(F)c1nnc(-c2ccc(Cn3nnc(-c4cccc(Cl)c4)c3Cl)nc2)o1 . Reported IC50?
stdout: 1490 nM

stdin: Item under review: FC(F)c1nnc(-c2ccc(Cn3cc4ccccc4n3)cc2)o1 . Reported IC50?
stdout: > 10000 nM

stdin: Item under review: FC(F)c1nnc(-c2ccc(Cn3cc(-c4ccccc4)nn3)cc2)o1 . Reported IC50?
stdout: > 10000 nM

stdin: Item under review: Fc1ccccc1-c1cn(Cc2ccc(-c3nnc(C(F)F)o3)cn2)nn1 . Reported IC50?
stdout: > 10000 nM

stdin: Item under review: FC(F)c1nnc(-c2ccc(Cn3nnc4cc(Cl)c(Cl)cc43)nc2)o1 . Reported IC50?
stdout: 8370 nM
